Ref: ChEMBL document CHEMBL1201862

Test system: LOX IMVI
Test: NCI tumour cell line growth inhibition, 48 h
The source made the active and inactive calls. No stated cut-off is given here; in the data, active = GI50 up to about 1.1 µM and inactive = higher.
The reply should name one outcome from y for active, n for inactive

Record excerpt, results attached:
CC(C)(C)c1cc(CCC(=O)Nc2ccc(Cl)cc2Cl)nc(N)n1; n
O=c1oc2ccc([N+](=O)[O-])cc2c(Nc2ccc3c(c2)Sc2ccccc2O3)c1[N+](=O)[O-]; n
COc1cc2cc3c4c(cc(OC)c(OC)c4c2cc1OC)CCN3C(=O)N(C)C; n
O=C(Cn1c2ccc(Br)cc2c2nc3ccccc3nc21)NCc1ccccc1; n

Q: Hi team, can someone confirm the assay call for O=[N+]([O-])C(/C=C(\Cl)[N+](=O)[O-])=C(Nc1ccccc1)Nc1ccccc1 ?
A: n

Q: Hi team, can someone confirm the assay call for COc1c(C)c(OCC=C(C)C)cc(CO)c1CO ?
A: n

Q: Hi team, can someone confirm the assay call for Cc1nc2sc3ccccc3n2c(=O)c1/N=N/c1ccc(Cl)cc1 ?
A: n

Q: Hi team, can someone confirm the assay call for CC(C)(CN1CCCCC1)C(/C=C/c1ccccc1)=N\NC(=O)N/N=C(/C=C/c1ccccc1)C(C)(C)CN1CCCCC1 ?
A: n

Q: Hi team, can someone confirm the assay call for Nc1nnc2ccc(Cl)cc2[n+]1[O-] ?
A: n

----------
Test system: UACC-257
Assay: NCI tumour cell line growth inhibition, 48 h
Activity calls are given as the source filed them. No stated cut-off is given here; in the data, active = GI50 up to about 1.1 µM and inactive = higher.
reported_metric: GI50

For orientation, consider the following solved cases.
Cc1cc(C)nc(NS(=O)(=O)c2ccc(NC(=O)c3cc([N+](=O)[O-])cc([N+](=O)[O-])c3)cc2)n1; 16.4 µM (inactive)
CC(O)(c1ccc(OCCC[N+](C)(C)C)cc1)C(C)(O)c1ccc(OCCC[N+](C)(C)C)cc1 (configuration not stated); > 100 µM (inactive)
O=C1[C@@H]2C(c3c(Cl)cccc3Cl)=NO[C@@H]2C(=O)N1c1ccc(Cc2ccc(N3C(=O)[C@H]4C(c5c(Cl)cccc5Cl)=NO[C@H]4C3=O)cc2)cc1; > 100 µM (inactive)

Q: Dear colleague, I am looking for the recorded GI50 of the following molecule: CCOC(=O)NCC(=O)NCC(=O)NCC(N)=O
A: > 100 µM (inactive)

Q: Dear colleague, I am looking for the recorded GI50 of the following molecule: Nc1ccc(-c2nc3ccccc3s2)cc1CO
A: > 87.7 µM (inactive)

Q: Dear colleague, I am looking for the recorded GI50 of the following molecule: C=CCC(C(=O)O)c1ccccc1 (configuration not stated)
A: > 100 µM (inactive)

Q: Dear colleague, I am looking for the recorded GI50 of the following molecule: CCN(CC)CCC(=O)OC1C(C)=CC(C)C(=O)CC(C(C)CC2CCC(O)C(OC)C2)OC(=O)C2CCCCN2C(=O)C(=O)[C@@]2(O)OC(CCC2C)CC(OC)\C(C)=C/C=C/C=C/C(C)CC(C)C(=O)C1OC (some centres not stated)
A: 13.3 µM (inactive)

Q: Dear colleague, I am looking for the recorded GI50 of the following molecule: CCN(CC)CCn1c2cc3c(cc2c(=O)c2cccnc21)OCCO3
A: > 10 µM (inactive)

Q: Dear colleague, I am looking for the recorded GI50 of the following molecule: O=C1C2=Cc3ccccc3CCN2c2ccccc21
A: 27.2 µM (inactive)

Q: Dear colleague, I am looking for the recorded GI50 of the following molecule: Cc1oc2c(c1C)S(=O)(=O)C(C#N)=CN2
A: > 100 µM (inactive)

Q: Dear colleague, I am looking for the recorded GI50 of the following molecule: N#C/C(C(=O)Nc1ccccc1)=C(/N)N1CCCC1
A: > 100 µM (inactive)

Q: Dear colleague, I am looking for the recorded GI50 of the following molecule: C/C=C(/CBr)CCC(Br)C(C)(C)Cl.C/C=C(\CBr)CCC(Br)C(C)(C)Cl (configuration not stated)
A: > 10 µM (inactive)
